# test-method-notes: gradient 5% acetonitrile 3 min, to 50% in 2 min, to 85% in 15 min, held 3 min, 100 µL/min
# condition-details: column: Zorbax Extend-C18 2.1 x 50 mm; eluents: water / acetonitrile, 0.1% formic acid
Outcome label depends on RP-LC retention time relative to 700 s: at/above gives true (1), below gives false (0).

CNCc1ccc(-c2ccc(F)c(Cl)c2)o1; false (0)

Dear colleague, could you confirm whether Cc1ccc2c(Nc3cc(F)cc(F)c3)c(C(=O)N3CCSCC3)cnc2n1 has RP-LC retention time at or above 700 s? false (0)

Check the entry O=C(NCc1cccc(Cl)c1)C1CCCN(c2ncnc3c2nc2n3CCCCC2)C1 (stereo not given) : does RP-LC retention time equal or exceed 700 s? true (1)

* * *

# test-method-notes: gradient 5% acetonitrile 3 min, to 50% in 2 min, to 85% in 15 min, held 3 min, 100 µL/min
# condition-details: column: Zorbax Extend-C18 2.1 x 50 mm; eluents: water / acetonitrile, 0.1% formic acid
Kindly note that classification relies on RP-LC retention time with these boundaries: low band = under 700 s, middle band = from 700 s up to 900 s, high band = 900 s and over

O=C(NC1CCN(c2ccc(F)cc2)C1=O)c1ccccc1C(F)(F)F (stereo not drawn); middle band
CC(C)Cn1nc(CNC(=O)c2ccco2)c2ccccc21; middle band
CC1=C(c2ccc(C)cc2)S(=O)(=O)N=C1N1CCCN(C(=O)C2CCCO2)CC1 (stereo not drawn); middle band
O=C(Cn1nc(C2CC2)cc1C(=O)N1CCCC1)Nc1ccc(F)c(F)c1; middle band
COc1ccc(NC(=O)Cn2c(C)cc(-c3nnc(-c4ccco4)o3)c2C)cc1F; middle band

Exam item: assign CCn1cnc(S(=O)(=O)N2CCC(C(=O)Nc3cccc(-c4ccno4)c3)CC2)c1 to the correct category. middle band

Lab note: sort COc1ccc(S(=O)(=O)N2CCCC(C(=O)NC3CCCCC3)C2)cc1C (stereo not drawn) into the matching RP-LC retention time band. high band

Entry Cc1cccc(-c2noc(Cn3ncn4nc(-c5ccc(Br)cc5)cc4c3=O)n2)c1 belongs to which category? high band

Classify this compound: O=C(c1cccc(N2CCNC(c3ccccc3)C2)n1)N1CCCN(c2ncccn2)CC1 (stereo not drawn) low band

Into which bin does this compound go? CS(=O)(=O)c1ccccc1C(=O)Nc1nnc(-c2cc(Cl)sc2Cl)o1 middle band

Exercise: read the entry Cc1ccn2cc(C(=O)N3CCN(c4cccc(C)c4C)CC3)nc2c1 and state which class it falls under. middle band

# classify by RP-LC retention time band: C=CCNC(=O)c1cnn(-c2cc(-c3nc(C(C)(C)C)no3)ccn2)c1C high band

* * *

# test-method-notes: gradient 5% acetonitrile 3 min, to 50% in 2 min, to 85% in 15 min, held 3 min, 100 µL/min
# condition-details: column: Zorbax Extend-C18 2.1 x 50 mm; eluents: water / acetonitrile, 0.1% formic acid
recorded-metric: RP-LC retention time (s)
The response must be a number in s with no trailing unit.

Example results:
COc1cccc(N2CCN(c3cc(SCC(=O)NCC4CCCO4)ncn3)CC2)c1 (centres undefined); 769
CCCCn1cc(S(=O)(=O)NCc2ccccc2Cl)c2cccnc21; 996
COc1cc(-c2noc(CCn3nc(-c4ccccc4)ccc3=O)n2)cc(OC)c1OC; 955
O=S(=O)(Nc1ccc(Cn2cncn2)cc1)c1cccc(F)c1; 705
Cn1nc(-c2nnc(-c3ccc(F)cc3)o2)c2c1CCN(S(=O)(=O)c1ccc(Cl)s1)C2; 1010

Entry CCCCCCCCCOc1ccc2[nH]cc(CCN)c2c1 : reported RP-LC retention time = ? 996

What value of measured RP-LC retention time is listed for Cc1oc(-c2[nH]ncc2C(=O)N(C)C)cc1S(=O)(=O)Nc1cccc(Cl)c1C ? 725

Recorded RP-LC retention time for CN1c2ccccc2C(=O)NC12CCN(C(=O)c1ccc(F)c(F)c1)CC2 , please? 746

For O=C(c1cc(C2CC2)n(CC(=O)N(Cc2ccccc2)c2ccccn2)n1)N1CCOCC1 , what is its reported RP-LC retention time? 687
